Measured values drawn from paper PMC8316439 for this set.

Tested on: ThyX (Thermotoga maritima, UniProt Q9WYT0)
Sequence (Q9WYT0 whole entry): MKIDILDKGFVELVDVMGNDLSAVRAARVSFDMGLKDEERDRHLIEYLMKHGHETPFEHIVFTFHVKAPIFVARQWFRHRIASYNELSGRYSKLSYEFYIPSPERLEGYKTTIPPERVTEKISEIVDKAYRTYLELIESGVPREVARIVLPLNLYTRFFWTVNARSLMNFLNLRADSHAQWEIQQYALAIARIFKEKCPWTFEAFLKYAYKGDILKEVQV
Quantity: Kd

Need Kd of C=O , thanks.
~20 mM
